- Tested on: Staphylococcus aureus ATCC29213
- method_summary: ATP Assay (viability at 3 hours), Table 6
- Format: cell-based
- condition_description: 3 h, 5 μg/mL
- Protocol: Bacteria (Escherichia coli ATCC 25922, Pseudomonas aeruginosa ATCC 27853, Staphylococcus aureus ATCC29213, and Staphylococcus epidermidis JCM 2414) were inoculated to Mueller-Hinton broth: MHB or LB medium, and cultured at a temperature and period suited for each strain. […] Then an aliquot having a volume (10 to 50 μL) appropriate to each strain was inoculated to a fresh liquid medium and cultured for 4 to 6 hours, followed by the measurement of the absorbance at 600 nm. […]
No end group written: not given here.
Could you please classify the records by Staphylococcus aureus ATP (viability, relative value to negative control) using these ranges: low (below 2), intermediate (2 to below 3), high (3 or more)

{"substance": "Ac-GRLKRMGERLKRKIQKWIRW-NH2 [SRP-19]", "class": "intermediate"}

stdin: Which Staphylococcus aureus ATP (viability, relative value to negative control) category applies to MGERLKRKIQKWIRW-NH2 [SRP-25] here?
stdout: high

stdin: Please classify: MLKLIFLHRLKRMRKRLKRKLR-NH2 [SRP-9]
stdout: low

stdin: Class? Entry: LIFLHRLKRMRKRLKRKLRL-NH2 [SRP-12]
stdout: low

stdin: State the band of GERLKRKIQKWIRW-NH2 [SRP-26]
stdout: high

stdin: Dear colleague, I would appreciate it if you could identify the bin for IFLHRLKRMRKRLKRKLRLW-OH [SRP-7] and reply at your convenience.
stdout: low

stdin: Consider RLKRLGERLKRKIQKLIRL-NH2 [SRP-28] . To which Staphylococcus aureus ATP (viability, relative value to negative control) class does it belong?
stdout: high

stdin: Exercise: read the entry Ac-RLKRLGERLKRKIQKLIRL-NH2 [SRP-33] and state which class it falls under.
stdout: low

stdin: Into which bin does this substance go? LKRLGERLKRKIQKLIRL-NH2 [SRP-29]
stdout: low

stdin: Exercise: read the entry GRLKRIGERLKRKIQKWIRW-NH2 [SRP-24] and state which class it falls under.
stdout: intermediate

stdin: Which Staphylococcus aureus ATP (viability, relative value to negative control) category applies to GRLKRMGKRLKRKIQKWARW-NH2 [SRP-14] here?
stdout: low

stdin: Hi there! Could you help me figure out the category for RLKRLGERLKRKIQKLI-NH2 [SRP-35] please?
stdout: intermediate

stdin: Which band does RLGERLKRKIQKLIRL-NH2 [SRP-31] fall in?
stdout: high

stdin: Band assignment needed for GRLKRMGERLKRKIQKLIRL-NH2 [SRP-21] please.
stdout: low

stdin: Class? Entry: Ac-KLIFLRELRRLRKRLKRKLR-NH2 [SRP-20]
stdout: high

###

- System: Pseudomonas aeruginosa ATCC 27853
- method_summary: ATP Assay (viability at 3 hours), Table 6
- Assay type: cell-based
- condition_description: 3 h, 5 μg/mL
No end group written: not given here.
Give Pseudomonas aeruginosa ATP (viability, relative value to negative control) for every item shown.
One number for each entry.

Completed entries (count: 3):
{"substance": "Ac-GRLKRMGKRLKRKIQKWARW-NH2 [SRP-18]", "readout_value": 1.5}
{"substance": "GRLKRIGERLKRKIQKWIRW-NH2 [SRP-24]", "readout_value": 1.3}
{"substance": "GRLKRLGERLKRKIQKWIRW-NH2 [SRP-22]", "readout_value": 1.4}

Field: Pseudomonas aeruginosa ATP (viability, relative value to negative control). Fill in for each record below.
1. GRLKRVGERLKRKIQKWIRW-NH2 [SRP-23]
2. GERLKRKIQKWIRW-NH2 [SRP-26]
3. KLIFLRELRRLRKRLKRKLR-NH2 [SRP-16]
4. LIFLHRLKRMRKRLKRKLRL-NH2 [SRP-12]

stdout:
1.5
6.2
1.0
1.0

Provide the reported Pseudomonas aeruginosa ATP (viability, relative value to negative control) of each entry below, same order.
1. RLKRMRKRLKRKLRLWHRKRYK-NH2 [SRP-8]
2. RLKRLGERLKRKIQKLI-NH2 [SRP-35]

stdout:
1. 0.9
2. 5.2

Provide Pseudomonas aeruginosa ATP (viability, relative value to negative control) for all items below, preserving their order.
1. IFLHRLKRMRKRLKRKLRLW-OH [SRP-7]
2. RLKRLGERLKRKIQKLIR-NH2 [SRP-34]
3. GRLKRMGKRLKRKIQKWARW-NH2 [SRP-14]
4. GRLKRMGERLKRKIQKLIRL-NH2 [SRP-21]
5. Ac-RLKRLGERLKRKIQKLIRL-NH2 [SRP-33]
6. KRLGERLKRKIQKLIRL-NH2 [SRP-30]

stdout:
1. 1.0
2. 2.8
3. 1.0
4. 3.8
5. 2.8
6. 2.0
